# maps each entry to its EC50
Molecular target: LHRH receptor (Rattus norvegicus, UniProt P30969)
Construct: rat pituitary cells which naturally strongly express the LHRH receptor
Sequence (P30969 whole entry): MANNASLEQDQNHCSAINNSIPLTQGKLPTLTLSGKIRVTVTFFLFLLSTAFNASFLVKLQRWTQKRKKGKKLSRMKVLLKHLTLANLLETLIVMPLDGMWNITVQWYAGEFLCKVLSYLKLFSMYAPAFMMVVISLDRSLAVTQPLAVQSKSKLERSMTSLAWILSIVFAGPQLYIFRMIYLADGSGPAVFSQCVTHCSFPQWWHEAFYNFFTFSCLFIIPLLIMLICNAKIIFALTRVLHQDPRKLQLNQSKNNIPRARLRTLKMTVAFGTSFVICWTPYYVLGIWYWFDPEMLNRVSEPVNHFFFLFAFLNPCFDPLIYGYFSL
Test: LHRH receptor-ligand binding assay (membrane preparations from rat pituitary cells)
Conditions: competition with 0.05 nM [125I][D-Trp6]-LHRH, 90 min, 4° C., rat pituitary membranes

compound	value-unit	EC50
CCC(C)[C@H](NC(=O)OCc1ccccc1)C(=O)N[C@]1(C(=O)N[C@H](C(N)=S)C(C)CC)CCc2[nH]c3c(Cl)cc(Cl)cc3c2C1 (stereo partly shown)	nM	6.9
CCC(C)[C@H](NC(=O)[C@@]1(NC(=O)[C@@H](NC(=O)Cc2ccccc2F)C(C)CC)CCc2[nH]c3c(C(F)(F)F)cccc3c2C1)C(N)=O (stereo partly shown)	nM	0.59
CCC(C)[C@H](NC(=O)[C@@]1(NC(=O)[C@@H](NC(=O)OCc2ccc(F)cc2)C(C)CC)CCc2[nH]c3c(Cl)cc(Cl)cc3c2C1)C(N)=O (stereo partly shown)	nM	8
CCC(C)[C@H](NC(=O)Cc1ccccc1F)C(=O)N[C@]1(C(=O)N[C@H](C(N)=S)C(C)CC)CCc2[nH]c3c(Cl)cc(F)cc3c2C1 (stereo partly shown)	nM	1
CCC(C)[C@H](NC(=O)Cc1ccc(F)cc1F)C(=O)N[C@]1(C(=O)N[C@H](C(N)=S)C(C)CC)CCc2[nH]c3c(Cl)cc(F)cc3c2C1 (stereo partly shown)	nM	0.72
CCC(C)[C@H](NCCc1ccc(F)cc1)C(=O)N[C@]1(C(=O)N[C@H](C(N)=S)C(C)CC)CCc2[nH]c3c(Cl)cc(F)cc3c2C1 (stereo partly shown)	nM	6.9
CCC(C)[C@H](NC(=O)Cc1ccccc1F)C(=O)N[C@]1(C(=O)N[C@H](C(N)=S)C(C)CC)CCc2[nH]c3c(C(F)(F)F)cccc3c2C1 (stereo partly shown)	nM	0.27

----------
Target: NK2 (h) (Homo sapiens, UniProt P21452)
Sequence (P21452 1-398): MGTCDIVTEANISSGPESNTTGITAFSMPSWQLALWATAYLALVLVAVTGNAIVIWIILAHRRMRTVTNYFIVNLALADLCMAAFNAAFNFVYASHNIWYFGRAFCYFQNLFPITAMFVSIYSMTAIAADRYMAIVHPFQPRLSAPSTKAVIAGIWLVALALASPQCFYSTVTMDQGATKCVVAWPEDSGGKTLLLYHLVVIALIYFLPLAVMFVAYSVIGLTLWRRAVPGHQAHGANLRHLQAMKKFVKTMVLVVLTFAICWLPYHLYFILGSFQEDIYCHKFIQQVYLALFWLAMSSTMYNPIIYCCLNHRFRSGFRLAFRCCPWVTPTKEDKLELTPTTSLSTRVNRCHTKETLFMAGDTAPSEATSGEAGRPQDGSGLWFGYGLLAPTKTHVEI
readout-label: IC50 (nM)

> print(dat)
                                   compound  measured.number
1  CCC(C)[C@H](NC(=O)Cc1ccccc1F)C(=O)N[C@]1(C(=O)N[C@H](C(N)=S)C(C)CC)CCc2[nH]c3c(Cl)cc(F)cc3c2C1 (stereo partly shown)             1600

----------
Test: Metabolic stability in rat liver microsomes
Format: in vitro ADME
Conditions: 1 μM, 37° C., NADPH

compound	recovery at 1 μM [%]
CCC(C)[C@H](NC(=O)[C@@]1(NC(=O)[C@@H](NC(=O)OCc2ccccc2)C(C)CC)CCc2[nH]c3c(OC)cccc3c2C1)C(N)=O (stereo partly drawn) [Example 294 from WO 03/051837 A2, reference compound]	5
CCC(C)[C@H](NC(=O)[C@@]1(NC(=O)[C@@H](NC(=O)OCc2ccccc2)C(C)CC)CCc2[nH]c3c(Cl)cc(Cl)cc3c2C1)C(N)=O (stereo partly drawn) [Example 295 from WO 03/051837 A2, reference compound]	0
CCC(C)[C@H](NC(=O)OCc1ccccc1)C(=O)N[C@]1(C(=O)N[C@H](C(N)=S)C(C)CC)CCc2[nH]c3c(Cl)cc(Cl)cc3c2C1 (stereo partly drawn)	78
